Conditions: pH 6.5
Where a SMILES comes first, the peptide text is derived from it.
PARAMETER: solubility in the acetate buffer

MOLECULE | PARAMETER | RESULT
N=C(N)NCCC[C@H](NC(=O)CNC(=O)CNC(=O)CNC(=O)CNC(=O)CNC(=O)CNC(=O)CNC(=O)CNC(=O)CNC(=O)CNC(=O)CNC(=O)CNC(=O)CNC(=O)CNC(=O)CNC(=O)CNC(=O)CN)C(=O)NCC(=O)N[C@@H](CC(=O)O)C(=O)N[C@@H](Cc1ccccc1)C(N)=O [G17 -RGDF] (H-GGGGGGGGGGGGGGGGGRGDF-NH2) | solubility in the acetate buffer | only partially soluble
N=C(N)NCCC[C@H](NC(=O)CNC(=O)CNC(=O)CNC(=O)CNC(=O)CNC(=O)CNC(=O)CNC(=O)CNC(=O)CNC(=O)CNC(=O)CNC(=O)CNC(=O)CNC(=O)CNC(=O)CN)C(=O)NCC(=O)N[C@@H](CC(=O)O)C(=O)N[C@@H](Cc1ccccc1)C(N)=O [G15 -RGDF] (H-GGGGGGGGGGGGGGGRGDF-NH2) | solubility in the acetate buffer | only partially soluble
N=C(N)NCCC[C@H](NC(=O)CNC(=O)CNC(=O)CNC(=O)CNC(=O)CNC(=O)CNC(=O)CNC(=O)CNC(=O)CNC(=O)CNC(=O)CNC(=O)CNC(=O)CN)C(=O)NCC(=O)N[C@@H](CC(=O)O)C(=O)N[C@@H](Cc1ccccc1)C(N)=O | solubility in the acetate buffer | only partially soluble
N=C(N)NCCC[C@H](NC(=O)CNC(=O)CNC(=O)CNC(=O)CNC(=O)CNC(=O)CNC(=O)CNC(=O)CNC(=O)CNC(=O)CNC(=O)CNC(=O)CNC(=O)CNC(=O)CNC(=O)CNC(=O)CNC(=O)CNC(=O)CNC(=O)CN)C(=O)NCC(=O)N[C@@H](CC(=O)O)C(=O)N[C@@H](Cc1ccccc1)C(N)=O [G19 -RGDF] (H-GGGGGGGGGGGGGGGGGGGRGDF-NH2) | solubility in the acetate buffer | only partially soluble
